- Test system: HCT-116
- TEST NAME: NCI-60 single-dose screen
- Type: cell-based
- CONDITION DESCRIPTION: Homo sapiens; HCT-116, 10^–5 M; read-out: GI (%)
# inhibition at 10 µM annotations
OBSERVATION TYPE: inhibition at 10 µM (%)

compound="O=C1C(Nc2ccc(I)cc2)=CC(c2ccc3c(c2)OCO3)N1c1ccc(I)cc1 (stereo not drawn)" observation_type="inhibition at 10 µM" reported_result=9
compound="COc1ccccc1C1C=C(Nc2ccc(I)cc2)C(=O)N1c1ccc(I)cc1 (stereo not drawn)" observation_type="inhibition at 10 µM" reported_result=3
compound="O=C1C(Nc2ccc(I)cc2)=CC(c2ccc(O)c(O)c2)N1c1ccc(I)cc1 (stereo not drawn)" observation_type="inhibition at 10 µM" reported_result=96
compound="O=C1C(Nc2ccc(I)cc2)=CC(c2ccc(Br)cc2)N1c1ccc(I)cc1 (stereo not drawn)" observation_type="inhibition at 10 µM" reported_result=19
compound="COc1cc(OC)c(C2C=C(Nc3ccc(I)cc3)C(=O)N2c2ccc(I)cc2)cc1OC (stereo not drawn)" observation_type="inhibition at 10 µM" reported_result=4
compound="O=C1C(Nc2ccc(I)cc2)=CC(c2ccc(C(F)(F)F)cc2)N1c1ccc(I)cc1 (stereo not drawn)" observation_type="inhibition at 10 µM" reported_result=58
compound="O=C1C(Nc2ccc(I)cc2)=CC(c2ccc(Cl)cc2)N1c1ccc(I)cc1 (stereo not drawn)" observation_type="inhibition at 10 µM" reported_result=25
compound="O=C1C(Nc2ccc(I)cc2)=CC(c2ccco2)N1c1ccc(I)cc1 (stereo not drawn)" observation_type="inhibition at 10 µM" reported_result=20
compound="O=C1C(Nc2ccc(I)cc2)=CC(c2ccccc2)N1c1ccc(I)cc1 (stereo not drawn)" observation_type="inhibition at 10 µM" reported_result=14
